Assay: Pharmacokinetics of M6G at single and multiple intravenous doses in healthy volunteers
Type: in vivo, human
Conditions: both sexes, human, plasma, iv, 45 mg/70 kg, single 5 min iv infusion 45 mg; Median; read-out: AUC0-∞
Experimental: Healthy male and female subjects were divided into two groups (A and B) with 12 in each. Group A received three single intravenous infusions of M6G over 5 mins at levels of 15, 30 and 45 mg/70 kg in random order, having taken 50 mg of naloxone orally 24 hrs beforehand. […] Vital signs (supine blood pressure, pulse, respiratory rate and oral temperature), respiration rate, pulse oximetry and adverse events were monitored during the study. Plasma levels of M6G were measured using HPLC/ms/ms.
Property: AUC(0-inf) (ng·h/mL)
The response must be a number in ng·h/mL with no trailing unit.

Documented AUC(0-inf) of CN1CC[C@]23c4c5ccc(O)c4O[C@H]2[C@@H](OC2OC(C(=O)O)C(O)C(O)C2O)C=CC3[C@H]1C5 (stereo partly shown) [M6G] : 5500
